# Tested on: sedge, umbrella (small-flower umbrella sedge, Cyperus difformis)
# Test Summary: Test B flooded paddy test
# Assay type: in vivo
# Experimental Conditions: Cyperus difformis, Flood, 250 g ai/ha; scale of 0 to 100 where 0 is no effect and 100 is complete control; read-out: Sedge, Umbrella plant response rating
Recorded pest or weed control at 250 g/ha for the following compounds

{"columns": ["Compound", "Measured Target", "Value Units", "pest or weed control at 250 g/ha"],
 "data": [
  ["Cc1ccc([C@H]2CN(C)C(=O)[C@@H]2C(=O)Nc2ccccc2S(C)(=O)=O)cc1C", "sedge, umbrella (small-flower umbrella sedge, Cyperus difformis)", "%", 0],
  ["CN1C[C@H](c2ccc(C#N)cc2)[C@@H](C(=O)Nc2cccc(F)c2F)C1=O (racemic)", "sedge, umbrella (small-flower umbrella sedge, Cyperus difformis)", "%", 65],
  ["O=C1NC[C@H](c2ccc(C3CC3)cc2)[C@H]1C(=O)Nc1ccccc1F", "sedge, umbrella (small-flower umbrella sedge, Cyperus difformis)", "%", 0],
  ["CC(C)c1cccc([C@H]2CN(C)C(=O)[C@@H]2C(=O)Nc2ccc(F)cc2F)c1", "sedge, umbrella (small-flower umbrella sedge, Cyperus difformis)", "%", 0]
]}
